- TESTED ON: human CLDN-18.2 (human, UniProt P56856-2 1-261)
- EXPERIMENT NOTES: cell-based or functional assay
Threshold 0.2 µg/mL: EC50 of CDC effect (complement serum, PI staining, relative killing rate) strictly smaller gives Condition met, otherwise Condition not met.

Prompt: State whether 0.2 µg/mL exceeds EC50 of CDC effect (complement serum, PI staining, relative killing rate) recorded for humanized anti-CLDN-18.2 antibody JS012-Chi27-hu6-v3-2 (antibody, human IgG1, V domains shown) VH: EVQLVESGGGLVKPGGSLRLSCAASGFTFSSYGMSWVRQAPGKGLESVSTISGGDSYTYYPDSVRGRFTISRDIAKNSLYLQMNSLRAEDTAVYYCARSYNGNSLPYWGQGTLVTVSS VL: DIVMTQSPDSLAVSLGERATINCKSSQSLLNSGNQRNYLTWYQQKPGQPPKLLIYWASTRESGVPDRFSGSGSGTDFTLTISSLQAEDVAVYYCQNNYFYPFTFGQGTKLEIK .
Response: Condition not met

Prompt: State whether 0.2 µg/mL exceeds EC50 of CDC effect (complement serum, PI staining, relative killing rate) recorded for humanized anti-CLDN-18.2 antibody JS012-Chi27-hu3-v2 (antibody, human IgG1, V domains shown) VH: EVQLVESGGGLVKPGGSLRLSCAASGFTFSSYGMSWVRQAPGKGLEWVSTISGGDSYTYYPDSVRGRFTISRDNAKNSLYLQMNSLRAEDTAVYYCARSYNGNSLPYWGQGTLVTVSS VL: DIVMTQSPDSLAVSLGERATINCKSSQSLLNSGNQRNYLTWYQQKPGQPPKLLIYWASTRESGVPDRFSGSGSGTDFTLTISSLQAEDVAVYYCQNNYFYPFTFGQGTKLEIK .
Response: Condition met

Prompt: State whether 0.2 µg/mL exceeds EC50 of CDC effect (complement serum, PI staining, relative killing rate) recorded for humanized anti-CLDN-18.2 antibody JS012-Chi2-hu2-v3-2 (antibody, human IgG1, kappa, V domains shown) VH: EVQLVESGGGLVQPGGSLRLSCAASGFTLNNFGMHWVRQAPGKGLEWVSSISSGSGTIYYADSVKGRFTISRDNPKNSLYLQMNSLRAEDTAVYYCARAYYGNGFSFWGQGTLVTVSS VL: DIVMTQSPDSLAVSLGERATINCKSSQSLLNSGNQKNYLTWYQQKPGQPPKLLIYWASTRESGVPDRFSGSGSGTDFTLTISSLQAEDVAVYYCQNVYSYPLTFGQGTKLEIKR .
Response: Condition met

Prompt: State whether 0.2 µg/mL exceeds EC50 of CDC effect (complement serum, PI staining, relative killing rate) recorded for humanized anti-CLDN-18.2 antibody JS012-Chi9-hu7 (antibody, human IgG1, kappa, V domains shown) VH: QIQLVQSGSELKKPGESVKVSCKASGYTFTNYGMNWVRQAPGQGLEWMGWINTYTGESTYADGFTGRFVFSSDTSARTAYLQISSLKAEDTAVYFCATLGYGNSLAYWGQGTLVTVSS VL: DIVMTQSPDSLAVSLGERATINCKSSQSLLNSGNQRNYLTWYQQKPGQPPKLLIYWASTRESGVPDRFSGSGSGTDFTLTISSLQAEDVAVYYCQNNYFYPFTFGQGTKLEIKR .
Response: Condition met

Prompt: State whether 0.2 µg/mL exceeds EC50 of CDC effect (complement serum, PI staining, relative killing rate) recorded for humanized anti-CLDN-18.2 antibody JS012-Chi9-hu7-v2 (antibody, human IgG1, kappa, V domains shown) VH: QVQLVQSGSELKKPGESVKVSCKASGYTFTNYGMNWVRQAPGQGLEWMGWINTYTGESTYADGFTGRFVFSMDTSASTAYLQISSLKAEDMAMYFCATLGYGNSLAYWGQGTLVTVSS VL: DIVMTQSPDSLAVSLGERATINCKSSQSLLNSGNQRNYLTWYQQKPGQPPKLLIYWASTRESGVPDRFSGSGSGTDFTLTISSLQAEDVAVYYCQNNYFYPFTFGQGTKLEIKR .
Response: Condition met
